Task for the reader: assign each of the following molecules its reported Inhibition rate (corneal neovascularization).
# Test system: corneal neovascularization
# experimentalProtocol: Corneal neovascularization induced by alkali burn in BALB/c mice
# Format: in vivo
# Parameters: concentration or dose not given beside the values
# conditions: day 14 after alkali burn, vitreous injection once a day for 1 week
Peptide text beside a SMILES is read from it. * marks the point of attachment. X65 = O=C1C=CC(=O)N1c1cccc(CCCCCCCCCCCCC(=O)*)c1; X58 = O=C1C=CC(=O)N1c1cccc(CCCCCCCCCCCC(=O)*)c1; X64 = O=C1C=CC(=O)N1c1cccc(CCCCCCCCCC(=O)*)c1; X72 = O=C1C=CC(=O)N1c1ccccc1CCCCCCCCCCC(=O)*; X66 = O=C1C=CC(=O)N1c1cccc(CCCCCCCC(=O)*)c1; X54 = O=C1C=CC(=O)N1c1cccc(CCCCCCC(=O)*)c1; X55 = O=C1C=CC(=O)N1c1ccccc1CCCCCCCCC(=O)*; X52 = O=C1C=CC(=O)N1c1ccccc1CCCCCCCC(=O)*; X71 = O=C1C=CC(=O)N1c1cccc(CCCCCC(=O)*)c1; X79 = O=C1C=CC(=O)N1c1cccc(CCC(=O)*)c1
Numbers only here, please. The scale is %.

q: State its Inhibition rate (corneal neovascularization): C[C@H](NC(=O)CNC(=O)[C@H](CCCNC(=N)N)NC(=O)CCCCCCCc1cccc(N2C(=O)C=CC2=O)c1)C(=O)N[C@@H](CC(=O)O)C(=O)N[C@@H](CCCNC(=N)N)C(=O)N[C@@H](C)C(=O)NCC(=O)NCC(=O)NCC(=O)NCC(=O)N[C@@H](CCCNC(=N)N)C(=O)NCC(=O)N[C@@H](CC(=O)O)C(=O)O [X31] (X66-RGADRAGGGGRGD-OH)
a: 45.42

q: State its Inhibition rate (corneal neovascularization): C[C@H](NC(=O)CNC(=O)[C@H](CCCNC(=N)N)NC(=O)CCc1cccc(N2C(=O)C=CC2=O)c1)C(=O)N[C@@H](CC(=O)O)C(=O)N[C@@H](CCCNC(=N)N)C(=O)N[C@@H](C)C(=O)NCC(=O)NCC(=O)NCC(=O)NCC(=O)N[C@@H](CCCNC(=N)N)C(=O)NCC(=O)N[C@@H](CC(=O)O)C(=O)O [X26] (X79-RGADRAGGGGRGD-OH)
a: 44.32

q: State its Inhibition rate (corneal neovascularization): C[C@H](NC(=O)CNC(=O)[C@H](CCCNC(=N)N)NC(=O)CCCCCCc1cccc(N2C(=O)C=CC2=O)c1)C(=O)N[C@@H](CC(=O)O)C(=O)N[C@@H](CCCNC(=N)N)C(=O)N[C@@H](C)C(=O)NCC(=O)NCC(=O)NCC(=O)NCC(=O)N[C@@H](CCCNC(=N)N)C(=O)NCC(=O)N[C@@H](CC(=O)O)C(=O)O [X30] (X54-RGADRAGGGGRGD-OH)
a: 47.13

q: State its Inhibition rate (corneal neovascularization): C[C@H](NC(=O)CNC(=O)[C@H](CCCNC(=N)N)NC(=O)CCCCCCCc1ccccc1N1C(=O)C=CC1=O)C(=O)N[C@@H](CC(=O)O)C(=O)N[C@@H](CCCNC(=N)N)C(=O)N[C@@H](C)C(=O)NCC(=O)NCC(=O)NCC(=O)NCC(=O)N[C@@H](CCCNC(=N)N)C(=O)NCC(=O)N[C@@H](CC(=O)O)C(=O)O [X19] (X52-RGADRAGGGGRGD-OH)
a: 41.43

q: State its Inhibition rate (corneal neovascularization): C[C@H](NC(=O)CNC(=O)[C@H](CCCNC(=N)N)NC(=O)CCCCCc1cccc(N2C(=O)C=CC2=O)c1)C(=O)N[C@@H](CC(=O)O)C(=O)N[C@@H](CCCNC(=N)N)C(=O)N[C@@H](C)C(=O)NCC(=O)NCC(=O)NCC(=O)NCC(=O)N[C@@H](CCCNC(=N)N)C(=O)NCC(=O)N[C@@H](CC(=O)O)C(=O)O [X29] (X71-RGADRAGGGGRGD-OH)
a: 54.98

q: State its Inhibition rate (corneal neovascularization): C[C@H](NC(=O)CNC(=O)[C@H](CCCNC(=N)N)NC(=O)CCCCCCCCCc1cccc(N2C(=O)C=CC2=O)c1)C(=O)N[C@@H](CC(=O)O)C(=O)N[C@@H](CCCNC(=N)N)C(=O)N[C@@H](C)C(=O)NCC(=O)NCC(=O)NCC(=O)NCC(=O)N[C@@H](CCCNC(=N)N)C(=O)NCC(=O)N[C@@H](CC(=O)O)C(=O)O [X33] (X64-RGADRAGGGGRGD-OH)
a: 47.20

q: State its Inhibition rate (corneal neovascularization): C[C@H](NC(=O)CNC(=O)[C@H](CCCNC(=N)N)NC(=O)CCCCCCCCCCCc1cccc(N2C(=O)C=CC2=O)c1)C(=O)N[C@@H](CC(=O)O)C(=O)N[C@@H](CCCNC(=N)N)C(=O)N[C@@H](C)C(=O)NCC(=O)NCC(=O)NCC(=O)NCC(=O)N[C@@H](CCCNC(=N)N)C(=O)NCC(=O)N[C@@H](CC(=O)O)C(=O)O [X35] (X58-RGADRAGGGGRGD-OH)
a: 44.60

q: State its Inhibition rate (corneal neovascularization): C[C@H](NC(=O)CNC(=O)[C@H](CCCNC(=N)N)NC(=O)CCCCCCCCCCc1ccccc1N1C(=O)C=CC1=O)C(=O)N[C@@H](CC(=O)O)C(=O)N[C@@H](CCCNC(=N)N)C(=O)N[C@@H](C)C(=O)NCC(=O)NCC(=O)NCC(=O)NCC(=O)N[C@@H](CCCNC(=N)N)C(=O)NCC(=O)N[C@@H](CC(=O)O)C(=O)O [X22] (X72-RGADRAGGGGRGD-OH)
a: 46.70

q: State its Inhibition rate (corneal neovascularization): C[C@H](NC(=O)CNC(=O)[C@H](CCCNC(=N)N)NC(=O)CCCCCCCCCCCCc1cccc(N2C(=O)C=CC2=O)c1)C(=O)N[C@@H](CC(=O)O)C(=O)N[C@@H](CCCNC(=N)N)C(=O)N[C@@H](C)C(=O)NCC(=O)NCC(=O)NCC(=O)NCC(=O)N[C@@H](CCCNC(=N)N)C(=O)NCC(=O)N[C@@H](CC(=O)O)C(=O)O [X36] (X65-RGADRAGGGGRGD-OH)
a: 45.52

q: State its Inhibition rate (corneal neovascularization): C[C@H](NC(=O)CNC(=O)[C@H](CCCNC(=N)N)NC(=O)CCCCCCCCc1ccccc1N1C(=O)C=CC1=O)C(=O)N[C@@H](CC(=O)O)C(=O)N[C@@H](CCCNC(=N)N)C(=O)N[C@@H](C)C(=O)NCC(=O)NCC(=O)NCC(=O)NCC(=O)N[C@@H](CCCNC(=N)N)C(=O)NCC(=O)N[C@@H](CC(=O)O)C(=O)O [X20] (X55-RGADRAGGGGRGD-OH)
a: 44.62
